For each of the compounds below, state its inhibition.
Tested on: Bacteria
Experiment: Inhibition of bacterial IMP-1 assessed as substrate hydrolysis at 50 uM using imipenem as substrate by spectrophotometric analysis relative to control

[[record]]
structure_string = "O=C1/C(=C/c2ccc(O)c(O)c2)Oc2cccc(O)c21"
measurement_target = "Bacteria"
obs_value = "< 10%"

[[record]]
structure_string = "COc1cc(/C=C2\\Oc3cc(O)ccc3C2=O)ccc1O"
measurement_target = "Bacteria"
obs_value = "13%"

[[record]]
structure_string = "O=C1/C(=C/c2cn(Cc3ccccc3Br)c3ccccc23)Oc2cc(O)cc(O)c21"
measurement_target = "Bacteria"
obs_value = "23%"

[[record]]
structure_string = "COc1ccc(/C=C2\\Oc3c(O)cccc3C2=O)cc1"
measurement_target = "Bacteria"
obs_value = "< 10%"


Items follow; give inhibition for each.
1. O=C1/C(=C/c2ccc(O)cc2O)Oc2ccccc21
2. COc1ccc(/C=C2\Oc3cc(O)cc(O)c3C2=O)cc1OC
3. O=C1/C(=C/c2ccc(Cl)cc2)Oc2c(O)cccc21

A:
< 10%
21%
< 10%
